assayedTarget: PDE9 (Homo sapiens)
Sequence (O76083 whole entry): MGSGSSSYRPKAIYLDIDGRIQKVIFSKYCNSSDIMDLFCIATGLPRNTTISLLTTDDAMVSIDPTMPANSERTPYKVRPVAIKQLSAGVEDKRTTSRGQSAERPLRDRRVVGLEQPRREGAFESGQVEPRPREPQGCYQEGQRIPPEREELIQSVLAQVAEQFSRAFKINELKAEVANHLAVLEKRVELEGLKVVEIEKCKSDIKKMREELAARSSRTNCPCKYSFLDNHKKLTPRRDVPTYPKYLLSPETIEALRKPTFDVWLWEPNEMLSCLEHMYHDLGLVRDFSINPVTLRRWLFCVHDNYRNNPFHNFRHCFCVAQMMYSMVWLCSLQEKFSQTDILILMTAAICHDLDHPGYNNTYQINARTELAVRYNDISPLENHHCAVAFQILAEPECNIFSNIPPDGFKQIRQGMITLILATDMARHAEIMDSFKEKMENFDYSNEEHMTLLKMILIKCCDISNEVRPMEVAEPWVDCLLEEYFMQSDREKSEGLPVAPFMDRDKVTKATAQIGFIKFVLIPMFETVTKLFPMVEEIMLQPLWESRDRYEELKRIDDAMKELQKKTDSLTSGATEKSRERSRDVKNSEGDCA
protocolDescription: PDE9 inhibition assay
Type: biochemical
testConditions: SPA assay, 10 nM 3H-cAMP, 1 hour incubation; read-out: IC50
Entries and their pIC50 values follow.
pIC50 field: float, defined as -log10 of concentration (mol/L).

Please review the following examples before continuing.
Input line: Give pIC50; test system PDE9 (Homo sapiens); compound CC(c1cn2c(-c3ccccc3)ncc2c(=O)[nH]1)N1CC(Oc2cccc(F)c2)C1 (centres unmarked) [Compound 24]
Output line: 7.60

Input line: Give pIC50; test system PDE9 (Homo sapiens); compound CC(c1cn2c(-c3ccccc3)ncc2c(=O)[nH]1)N1CC(c2ccc(F)cc2)C1 (centres unmarked) [Compound 28]
Output line: 7.28

Input line: Give pIC50; test system PDE9 (Homo sapiens); compound CC1CN(Cc2ccc(F)cc2)CC1c1cn2c(-c3ccc(Cl)cc3)ncc2c(=O)[nH]1 (centres unmarked) [Compound 110]
Output line: 7.44

Input line: Give pIC50; test system PDE9 (Homo sapiens); compound O=c1[nH]c(CN2CC(Oc3cnc4ccccc4n3)C2)cn2c(-c3ccccc3)ncc12 [Compound 13]
Output line: 8.15

Input line: Give pIC50; test system PDE9 (Homo sapiens); compound CC1CN(CC2CCCCC2)CC1c1cn2c(C3CCOCC3)ncc2c(=O)[nH]1 (centres unmarked) [Compound 115]
Output line: 7.43

Input line: Give pIC50; test system PDE9 (Homo sapiens); compound O=c1[nH]c(CN2CC(Oc3ccc(Cl)cc3)C2)cn2c(-c3ccc(F)cc3)ncc12 [Compound 118]
Output line: 7.38

Input line: Give pIC50; test system PDE9 (Homo sapiens); compound CC1CN(Cc2ccc3nccnc3c2)CC1c1cn2c(C3CCOCC3)ncc2c(=O)[nH]1 (centres unmarked) [Compound 97]
Output line: 8.40

// switching to the query compound
Input line: Give pIC50; test system PDE9 (Homo sapiens); compound CC1CN(Cc2ccc(F)cc2)CC1c1cn2c(-c3ccc(F)cc3)ncc2c(=O)[nH]1 (centres unmarked) [Compound 99]
Output line: 7.77

---

Entries and their IC50 values follow.
assayedTarget: PDE9 (Homo sapiens)
protocolDescription: PDE9 inhibition assay
Type: biochemical
testConditions: SPA assay, 10 nM 3H-cAMP, 1 hour incubation; read-out: IC50
Experimental: Reactions are initiated by addition of the cyclic nucleotide substrate, and reactions are allowed to proceed for one hr at room temperature before being terminated through mixing with 15 uL 8 mg/mL yttrium silicate SPA beads (Amersham). […] IC50 values were calculated by non linear regression using XLfit (IDBS).

Please review the following examples before continuing.
Input line: Using known records, supply IC50 for O=c1[nH]c(CN2CC(c3ccccc3)C2)cn2c(-c3ccccc3)ncc12
Output line: 78 nM

Input line: Using known records, supply IC50 for O=c1[nH]c(CN2CCC(Nc3ccccc3)C2)cn2c(-c3ccccc3)ncc12 (stereo not shown)
Output line: 28 nM

More entries:
Input line: Using known records, supply IC50 for CC(c1cn2c(C3CCCC3)ncc2c(=O)[nH]1)N1CC(Oc2ncccn2)C1 (stereo not shown)
Output line: 8 nM

Input line: Using known records, supply IC50 for CC1CN(Cc2ccc(F)cc2)CC1c1cn2c(C3CCOCC3)ncc2c(=O)[nH]1 (stereo not shown)
Output line: 7 nM

---

assayedTarget: PDE9 (Homo sapiens)
protocolDescription: PDE9 inhibition assay
Assay type: biochemical
Entries and their IC50 values follow.
Reply numerically in nM, unit not repeated.

Input line: Using known records, supply IC50 for O=c1[nH]c(CN2CC(Oc3cccc(C(F)(F)F)c3)C2)cn2c(-c3ccc(F)cc3)ncc12
Output line: 97

Input line: Using known records, supply IC50 for Cc1cc(C)nc(OC2CN(Cc3cn4c(-c5ccccc5)ncc4c(=O)[nH]3)C2)n1
Output line: 50

Input line: Using known records, supply IC50 for O=c1[nH]c(CN2CC(Oc3ncccn3)C2)cn2c(-c3ccccc3)ncc12
Output line: 30

Input line: Using known records, supply IC50 for COc1ccc(C2CN(Cc3cn4c(-c5ccc(F)cc5)ncc4c(=O)[nH]3)C2)cc1
Output line: 57

Input line: Using known records, supply IC50 for CCc1ccc(C2CN(Cc3cn4c(-c5ccccc5)ncc4c(=O)[nH]3)C2)cc1
Output line: 127

Input line: Using known records, supply IC50 for O=c1[nH]c(CN2CC(Oc3ccccc3F)C2)cn2c(-c3ccccc3)ncc12
Output line: 18

More entries:
Input line: Using known records, supply IC50 for CC(c1cn2c(C3CCCC3)ncc2c(=O)[nH]1)N1CC(Oc2ccc(F)cc2)C1 (centres unmarked)
Output line: 3

Input line: Using known records, supply IC50 for O=c1[nH]c(CN2CC(Oc3cnccn3)C2)cn2c(-c3ccccc3)ncc12
Output line: 32

---

assayedTarget: PDE9 (Homo sapiens)
protocolDescription: PDE9 inhibition assay
Format: biochemical
testConditions: SPA assay, 10 nM 3H-cAMP, 1 hour incubation; read-out: IC50
valueType: IC50 (nM)
Reply numerically in nM, unit not repeated.

Input line: Using known records, supply IC50 for CN(C)c1ccc(C2CN(Cc3cn4c(-c5ccc(F)cc5)ncc4c(=O)[nH]3)C2)cc1
Output line: 7

More entries:
Input line: Using known records, supply IC50 for O=c1[nH]c(CN2CCC(c3cccc(C(F)(F)F)c3)C2)cn2c(C3CCOC3)ncc12 (stereo not drawn)
Output line: 48

Input line: Using known records, supply IC50 for CC1CN(Cc2ccccn2)CC1c1cn2c(C3CCOCC3)ncc2c(=O)[nH]1 (stereo not drawn)
Output line: 19

Input line: Using known records, supply IC50 for CC(c1cn2c(-c3ccccc3)ncc2c(=O)[nH]1)N1CC(Oc2cnccn2)C1 (stereo not drawn)
Output line: 40

Input line: Using known records, supply IC50 for CC1CN(Cc2ccccc2)CC1c1cn2c(-c3ccccc3)ncc2c(=O)[nH]1 (stereo not drawn)
Output line: 33

---

Entries and their log10(IC50) values follow.
assayedTarget: PDE9 (Homo sapiens)
protocolDescription: PDE9 inhibition assay
Type: biochemical
testConditions: SPA assay, 10 nM 3H-cAMP, 1 hour incubation; read-out: IC50
Values below are the log10 of the recorded IC50, with nM as the unit.

Input line: Using known records, supply log10(IC50) for CC1CN(Cc2ccc(C#N)cc2)CC1c1cn2c(C3CCOCC3)ncc2c(=O)[nH]1 (stereo not shown)
Output line: 1.26

Input line: Using known records, supply log10(IC50) for O=c1[nH]c(CN2CC(Oc3c(F)cccc3F)C2)cn2c(-c3ccc(F)cc3)ncc12
Output line: 1.61

Input line: Using known records, supply log10(IC50) for O=c1[nH]c(CN2CC(c3ccccn3)C2)cn2c(-c3ccccc3)ncc12
Output line: 1.46

Input line: Using known records, supply log10(IC50) for CCC(c1cn2c(-c3ccccc3)ncc2c(=O)[nH]1)N1CC(c2ccc(F)cc2)C1 (stereo not shown)
Output line: 1.28

Input line: Using known records, supply log10(IC50) for COC(=O)C1CN(Cc2ccccc2)CC1c1cn2c(-c3ccccc3)ncc2c(=O)[nH]1 (stereo not shown)
Output line: 1.63

Input line: Using known records, supply log10(IC50) for O=c1[nH]c(CN2CC(Oc3ccccc3)C2)cn2c(-c3ccccc3)ncc12
Output line: 0.90

---

Entries and their log10 of IC50 values follow.
assayedTarget: UniProt:O76083
protocolDescription: PDE9 inhibition assay
Assay type: biochemical
Values below are the log10 of the recorded IC50, with nM as the unit.

Input line: Using known records, supply log10 of IC50 for O=c1[nH]c(CN2CC(c3ccccn3)C2)cn2c(C3CCOCC3)ncc12
Output line: 1.89

Input line: Using known records, supply log10 of IC50 for CC(c1cn2c(-c3ccccc3)ncc2c(=O)[nH]1)N1CC(Oc2ccccc2)C1 (stereo not shown)
Output line: 1.45

---

Entries and their pIC50 values follow.
assayedTarget: PDE9 (Homo sapiens)
protocolDescription: PDE9 inhibition assay
Format: biochemical
testConditions: SPA assay, 10 nM 3H-cAMP, 1 hour incubation; read-out: IC50
pIC50 field: float, defined as -log10 of concentration (mol/L).

Input line: Give pIC50; test system PDE9 (Homo sapiens); compound CN(Cc1ccccc1)Cc1cn2c(-c3ccccc3)ncc2c(=O)[nH]1
Output line: 6.81

More entries:
Input line: Give pIC50; test system PDE9 (Homo sapiens); compound CC1CN(Cc2ccc(F)cc2)CC1c1cn2c(-c3ccc(Cl)cc3)nc(Br)c2c(=O)[nH]1 (centres unmarked)
Output line: 7.13

Input line: Give pIC50; test system PDE9 (Homo sapiens); compound CC(c1cn2c(-c3ccc(F)cc3)ncc2c(=O)[nH]1)N1CC(Oc2ccc(OC(F)(F)F)cc2)C1 (centres unmarked)
Output line: 7.46

Input line: Give pIC50; test system PDE9 (Homo sapiens); compound O=c1[nH]c(CN2CC(c3ncccn3)C2)cn2c(C3CCOCC3)ncc12
Output line: 6.99

Input line: Give pIC50; test system PDE9 (Homo sapiens); compound CC(c1cn2c(-c3ccccc3)ncc2c(=O)[nH]1)N1CC(Oc2ncccn2)C1 (centres unmarked)
Output line: 7.85

Input line: Give pIC50; test system PDE9 (Homo sapiens); compound O=c1[nH]c(CN2CC(Oc3ccc(C(F)(F)F)cc3)C2)cn2c(-c3ccc(F)cc3)ncc12
Output line: 7.55

Input line: Give pIC50; test system PDE9 (Homo sapiens); compound CC1CN(Cc2ccc(F)cc2)CC1c1cn2c(-c3ccc(F)cc3)nc(Br)c2c(=O)[nH]1 (centres unmarked)
Output line: 8.40

Input line: Give pIC50; test system PDE9 (Homo sapiens); compound CC1CN(Cc2ccc(F)cc2)CC1c1cn2c(-c3ccc(OC(F)(F)F)cc3)ncc2c(=O)[nH]1 (centres unmarked)
Output line: 6.72
